For each record, write down the corresponding Dose.FC.LYZ.NS.
Test system: ISC-enriched organoids
assay_method_text: Primary screen, 384-well 2.5-D organoid differentiation (ENR+CD, 6 days): basal lysozyme secretion (LYZ.NS)
Type: cell-based, murine
condition_notes: primary screen, dose 10.00 uM, ENR+CD 6 days, FC vs plate median
Numbers only, in log 2 fold change.

The cases that follow already have their Dose.FC.LYZ.NS on record.
[
  {
    "compound": "CC(=O)Nc1cccc2c1c(Sc1ccc(Cl)cc1)c(C)n2CC(=O)O",
    "target_or_system": "ISC-enriched organoids",
    "unit_annotation": "log 2 fold change",
    "Dose.FC.LYZ.NS": 0.024
  },
  {
    "compound": "O=C1C(=O)N(Cc2ccc(Cl)c(Cl)c2)c2ccccc21",
    "target_or_system": "ISC-enriched organoids",
    "unit_annotation": "log 2 fold change",
    "Dose.FC.LYZ.NS": "−0.199"
  },
  {
    "compound": "COC1CCN(C(=O)c2cc(Cc3n[nH]c(=O)c4ccccc34)ccc2F)CC1",
    "target_or_system": "ISC-enriched organoids",
    "unit_annotation": "log 2 fold change",
    "Dose.FC.LYZ.NS": "−0.172"
  }
]

--- query ---
Recorded Dose.FC.LYZ.NS of CC(C)N(CC[C@H](c1ccccc1)c1cc(CO)ccc1O)C(C)C [5-hydroxymethyl Tolterodine (PNU 200577, 5-HMT, 5-HM)] , please.
0.034

----------
Test system: ISC-enriched organoids
assay_method_text: Secondary (validation) screen, 384-well 2.5-D, ENR+CD 6 days, n=8 wells, vs ENR+CD+DMSO control: ATP (CTG)
Assay type: cell-based, murine
condition_notes: Dose 0.04 uM
For each record, write down the corresponding repSSMD.CTG.

I have 4 compounds here; please give me repSSMD.CTG for each one.
1. CC(C)(C)NC(=O)[C@H]1CC[C@H]2[C@@H]3CC[C@H]4NC(=O)C=C[C@]4(C)[C@H]3CC[C@]12C [Finasteride]
2. CCOc1ccc(Cc2cc([C@@H]3O[C@H](CO)[C@@H](O)[C@H](O)[C@H]3O)ccc2Cl)cc1
3. O=C(/C=C\n1cnc(-c2cc(C(F)(F)F)cc(C(F)(F)F)c2)n1)NNc1cnccn1
4. NC1(Cc2ccc(Cl)cc2)CCN(c2ncnc3[nH]ccc23)CC1 [CCT128930, reference compound]

1. −0.994
2. 0.979
3. 0.179
4. 0.922

----------
System: ISC-enriched organoids
assay_method_text: Primary screen, 384-well 2.5-D organoid differentiation (ENR+CD, 6 days): carbachol-induced lysozyme secretion (LYZ.S)
Assay type: cell-based, murine
condition_notes: standard z score; primary screen; 2nd of the 4 dose lines of the treatment (dose not given)
Counter-ions that a name gives are not always drawn.
property_label: Z.LYZ.S
Give bare numbers.

The cases that follow already have their Z.LYZ.S on record.
[
  {
    "molecule": "O=C(O)Cn1nnc(-c2cc(N3CCC(Oc4cc(F)ccc4Br)CC3)no2)n1",
    "Z.LYZ.S": 1.194
  },
  {
    "molecule": "O=C(c1ccc(Nc2nccc(-c3cc4ccccc4s3)n2)cc1)N1CCC(N2CCCC2)CC1",
    "Z.LYZ.S": 0.179
  },
  {
    "molecule": "CC[C@H](C)C(=O)O[C@H]1C[C@@H](C)C=C2C=C[C@H](C)[C@H](CC[C@@H]3C[C@@H](O)CC(=O)O3)[C@H]21",
    "Z.LYZ.S": "−0.320"
  }
]

I have 5 molecules here; please give me Z.LYZ.S for each one.
1. c1cc(-c2cnn3cc(-c4ccc(N5CCNCC5)cc4)cnc23)c2cccnc2c1
2. CCc1c2c(nc3ccc(OC(=O)N4CCC(N5CCCCC5)CC4)cc13)-c1cc3c(c(=O)n1C2)COC(=O)[C@]3(O)CC [Irinotecan HCl Trihydrate]
3. C=CCn1c(=O)c2cnc(Nc3ccc(N4CCN(C)CC4)cc3)nc2n1-c1cccc(C(C)(C)O)n1
4. Cc1ccc(C(=O)N(CCCN)[C@@H](c2nc3cc(Cl)ccc3c(=O)n2Cc2ccccc2)C(C)C)cc1 [Ispinesib (SB-715992)]
5. O=C(O)c1ccc(Nc2ncc3c(n2)-c2ccc(Cl)cc2C(c2c(F)cccc2F)=NC3)cc1

0.167
−1.020
−1.404
−1.914
1.081

I have 3 molecules here; please give me Z.LYZ.S for each one.
1. CCCC(=O)Nc1cccc(NC(=O)c2ccccc2Br)c1
2. COC(=O)CCSCc1ccc(-c2onc(C)c2NC(=O)OC(C)c2ccccc2Cl)cc1 (centres unmarked)
3. Cc1c(C(=O)Nc2ccc(N3C[C@@H](C)O[C@@H](C)C3)nc2)cccc1-c1ccc(OC(F)(F)F)cc1

1. −0.173
2. 0.204
3. 0.481

I have 2 molecules here; please give me Z.LYZ.S for each one.
1. Nc1nc(CC(=O)Nc2ccc(CCNC[C@H](O)c3ccccc3)cc2)cs1
2. O=[N+]([O-])C=Cc1ccc2c(c1)OCO2

1. −0.103
2. 0.648

----------
System: ISC-enriched organoids
assay_method_text: Primary screen, 384-well 2.5-D organoid differentiation (ENR+CD, 6 days, Target Selective Inhibitor Library, vs whole-plate median): ATP (CellTiter-Glo 3D, CTG)
condition_notes: primary screen, dose 0.40 uM, ENR+CD 6 days, FC vs plate median
property_label: Dose.FC.CTG (log 2 fold change)
Numbers only, in log 2 fold change.

[
  {
    "compound": "O=C(/C=C/c1cccc(S(=O)(=O)Nc2ccccc2)c1)NO [Belinostat (PXD101)]",
    "property_label": "Dose.FC.CTG",
    "unit_annotation": "log 2 fold change",
    "experimental_result": "−0.055"
  }
]

I have 6 compounds here; please give me Dose.FC.CTG for each one.
1. CNC(=O)[C@H](Cc1ccccc1)NC(=O)[C@H](CC(C)C)[C@H](CSc1cccs1)C(=O)NO [Batimastat (BB-94)]
2. C/C(=C\C(=O)Nc1ccccc1C(=O)O)c1ccc2ccccc2c1 [BIBR 1532]
3. CC1(C)CCC(c2ccc(Cl)cc2)=C(CN2CCN(c3ccc(C(=O)NS(=O)(=O)c4ccc(N[C@H](CCN5CCOCC5)CSc5ccccc5)c(S(=O)(=O)C(F)(F)F)c4)cc3)CC2)C1 [ABT-263 (Navitoclax)]
4. CC(C)N(CC[C@H](c1ccccc1)c1cc(CO)ccc1O)C(C)C [4CE°8C]
5. C=C1C(=O)O[C@H]2[C@H]1CC/C(C)=C/CC[C@@]1(C)O[C@@H]21 [(−)-Parthenolide]
6. O=C(O)c1ccc(N2C(=O)/C(=C\c3ccc(-c4ccc([N+](=O)[O-])cc4)o3)C=C2c2ccccc2)cc1 [4E1RCat]

1: −0.095; 2: −0.047; 3: −0.264; 4: 0.007; 5: 0.228; 6: 0.362

----------
Test system: ISC-enriched organoids
assay_method_text: Primary screen, 384-well 2.5-D organoid differentiation (ENR+CD, 6 days): carbachol-induced lysozyme secretion (LYZ.S)
Format: cell-based, murine
condition_notes: dose 0.40 uM; vs plate median
property_label: Dose.FC.LYZ.S (log 2 fold change, carbachol-induced lysozyme secretion)
Answers are plain numbers.

[
  {
    "compound": "Nc1cccc(-c2cc3c(Oc4cccc(O)c4)ncnc3[nH]2)c1 [TWS119]",
    "experimental_result": 0.142
  },
  {
    "compound": "N#C[C@@H]1CCCN1C(=O)CNC12CC3CC(CC(O)(C3)C1)C2 [Vildagliptin (LAF-237)]",
    "experimental_result": 0.113
  }
]

I have 4 compounds here; please give me Dose.FC.LYZ.S (log 2 fold change, carbachol-induced lysozyme secretion) for each one.
1. COc1cc2/c(=N/c3ccc(Br)cc3F)nc[nH]c2cc1OCC1CCN(C)CC1 [Vandetanib (ZD6474)]
2. CN(C)CCCCC(=O)Nc1ccc(NC(=S)NC(=O)c2ccc(C(C)(C)C)cc2)cc1 [Tenovin-6]
3. COc1cc2ncnc(Nc3ccc(Cl)cc3F)c2cc1OC [ZM 306416]
4. Nc1nc(N)c2nc(-c3cccc(O)c3)c(-c3cccc(O)c3)nc2n1 [TG100-115]

1: −0.054; 2: −0.109; 3: −0.288; 4: 0.032

I have 5 compounds here; please give me Dose.FC.LYZ.S (log 2 fold change, carbachol-induced lysozyme secretion) for each one.
1. Cc1cc(-c2ccc(CC(=O)Nc3ccc(-c4cccnc4)cc3)cc2)ccn1 [Wnt-C59 (C59)]
2. C[C@H](NC(=O)Cc1cc(F)cc(F)c1)C(=O)N[C@@H]1C(=O)N(C)c2ccccc2-c2ccccc21 [YO-01027]
3. CCCCNc1ncc(-c2ccc(CN3CCOCC3)cn2)c(NC2CCC(O)CC2)n1 (stereo not shown) [UNC2250]
4. COCC[n+]1c2c(n(Cc3cnccn3)c1C)C(=O)c1ccccc1C2=O.[Br-] [YM155 (Sepantronium Bromide)]
5. Cl.N[C@@H]1C[C@H]1c1ccccc1 (racemic) [Tranylcypromine (2-PCPA) HCl]

["−0.281", "−0.058", 0.113, "−0.039", "−0.037"]

I have 2 compounds here; please give me Dose.FC.LYZ.S (log 2 fold change, carbachol-induced lysozyme secretion) for each one.
1. COc1cc2c(Nc3ccc(NC(=O)c4ccccc4)cc3)ncnc2cc1OCCCN1CCOCC1 [ZM 447439]
2. CCO.N#CC(=C(/N)Sc1ccccc1N)/C(C#N)=C(\N)Sc1ccccc1N [U0126-EtOH]

0.108
0.075
